- System: freshwater green alga Raphidocelis subcapitata
- procedure-details: whole plant or invertebrate
- condition-label: no observed effect concentration on algal growth rate, NOEC = EC/10
measurement-label: NOEC (mg/L)
Report the value in mg/L with no unit label.

(Q) Can you share its NOEC? I mean this compound: CC1(C)C(C=C(Cl)Cl)C1C(=O)OCc1cccc(Oc2ccccc2)c1 (stereo not shown)
(A) 1.494

(Q) Can you share its NOEC? I mean this compound: CC1(C)[C@H](C(=O)O[C@H](C#N)c2cccc(Oc3ccccc3)c2)[C@@H]1/C=C(\Cl)C(F)(F)F (racemic)
(A) 3.389

(Q) Can you share its NOEC? I mean this compound: CC1(C)C(C=C(Cl)Cl)C1C(=O)OC(C#N)c1cccc(Oc2ccccc2)c1 (stereo not shown)
(A) 6.932

Cited source for all entries: paper PMC8282878
